Every entry's value here was drawn from patent US20090215778A1.

Molecular target: HIV Env six-helix bundle (6HB) structure (Human immunodeficiency virus type 1 group M subtype B, UniProt P04579)
Construct: H9 cells chronically infected with HIV-1 (H9/HIV-1RF); endogenous in cells; host or cells: H9 cells chronically infected with HIV-1 strain RF (Env is made from the virus in the infected cells, not by transfection)
Sequence (P04579 32-519): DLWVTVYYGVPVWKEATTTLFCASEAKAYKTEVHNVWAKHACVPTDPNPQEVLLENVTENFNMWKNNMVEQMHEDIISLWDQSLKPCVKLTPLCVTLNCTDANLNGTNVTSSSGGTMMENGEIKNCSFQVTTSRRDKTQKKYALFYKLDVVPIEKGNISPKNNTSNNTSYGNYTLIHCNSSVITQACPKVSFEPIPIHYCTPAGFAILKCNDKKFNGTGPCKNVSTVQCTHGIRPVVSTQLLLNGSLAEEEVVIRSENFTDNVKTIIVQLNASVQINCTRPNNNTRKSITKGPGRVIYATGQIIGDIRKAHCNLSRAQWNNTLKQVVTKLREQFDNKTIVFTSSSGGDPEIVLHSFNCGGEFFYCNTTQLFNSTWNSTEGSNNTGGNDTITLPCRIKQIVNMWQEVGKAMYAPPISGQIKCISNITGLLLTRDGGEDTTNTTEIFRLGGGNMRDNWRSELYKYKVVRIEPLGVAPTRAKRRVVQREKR
Sequence (P04579 520-865): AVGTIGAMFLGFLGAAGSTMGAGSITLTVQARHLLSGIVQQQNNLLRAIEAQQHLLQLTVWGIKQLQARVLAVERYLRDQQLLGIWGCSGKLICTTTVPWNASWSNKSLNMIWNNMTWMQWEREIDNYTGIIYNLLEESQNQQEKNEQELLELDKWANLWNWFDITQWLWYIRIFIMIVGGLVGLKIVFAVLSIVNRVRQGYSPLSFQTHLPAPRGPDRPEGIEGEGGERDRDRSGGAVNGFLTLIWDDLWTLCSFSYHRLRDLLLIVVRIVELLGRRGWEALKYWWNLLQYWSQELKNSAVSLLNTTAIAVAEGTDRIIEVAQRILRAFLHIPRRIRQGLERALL
Assay: Six-helix bundle (6HB) assay
Assay type: cell-based, HIV-1 (strain RF)
observation type: IC50

Observe how each entry below is paired with its result.
>>> measured_result("COc1ccc(-c2nc3c(C(=O)N4CCN(C(CO)c5cc(F)ccc5OC)C[C@H]4C)cnn3c(C(F)(F)F)c2C)cc1 (stereo partly shown)")
"< 1000 nM"
>>> measured_result("COc1ccc(-c2nc3c(C(=O)N4CCN(C(CO)c5ccc(OC)nc5)C[C@H]4C)cnn3c(C(F)(F)F)c2C)cc1 (stereo partly shown)")
"< 1000 nM"
>>> measured_result("COc1ccc(-c2nc3c(C(=O)N4CCN([C@H](C)c5cc(F)cc(F)c5F)C[C@H]4C)cnn3c(C(F)(F)F)c2C)cc1")
"< 1000 nM"
>>> measured_result("COc1ccc(-c2nc3c(C(=O)N4CCN(C(CO)c5ccccc5NC(N)=O)C[C@H]4C)cnn3c(C(F)(F)F)c2C)cc1 (stereo partly shown)")
"> 10100 nM"
>>> measured_result("COc1ccc(-c2nc3c(C(=O)N4CCN(C(CO)c5cccc(N(C)C)c5)C[C@H]4C)cnn3c(C(F)(F)F)c2C)cc1 (stereo partly shown)")
"< 1000 nM"

Quick check: IC50 of `COc1ccc(-c2nc3c(C(=O)N4CCN([C@@H](C)c5ccc(N)cc5)C[C@H]4C)cnn3c(C(F)(F)F)c2C)cc1` ?
1100 to 10000 nM

And what about the molecule `COc1ccc(-c2nc3c(C(=O)N4CCN([C@@H](C)c5ccccc5C#N)C[C@H]4C)cnn3c(C(F)(F)F)c2C)cc1` ?
< 1000 nM
